- test: DRUGMATRIX: Phosphodiesterase PDE3 enzyme inhibition (substrate: [3H]cAMP + cAMP)
- Assay type: tissue-based, Homo sapiens
- condition details: platelet; Not Active = under 50% inhibition at 10 µM

compound: CCCCCCCCCc1ccc(O)cc1 [4-NONYLPHENOL]
Ki: Not Active
--
compound: NCC[C@H](O)C(=O)N[C@@H]1C[C@H](N)[C@@H](O[C@H]2O[C@H](CN)[C@@H](O)[C@H](O)[C@H]2O)[C@H](O)[C@H]1O[C@H]1O[C@H](CO)[C@@H](O)[C@H](N)[C@H]1O [AMIKACIN]
Ki: Not Active
--
compound: Cc1ccccc1N1CCN(CCc2nnc3n2CCCC3)CC1 [DAPIPRAZOLE]
Ki: Not Active
--
compound: Cn1cnc([N+](=O)[O-])c1Sc1ncnc2nc[nH]c12 [AZATHIOPRINE]
Ki: Not Active

###

- target of assay: Progesterone receptor (Bos taurus)
- Sequence (Q690N0 whole entry): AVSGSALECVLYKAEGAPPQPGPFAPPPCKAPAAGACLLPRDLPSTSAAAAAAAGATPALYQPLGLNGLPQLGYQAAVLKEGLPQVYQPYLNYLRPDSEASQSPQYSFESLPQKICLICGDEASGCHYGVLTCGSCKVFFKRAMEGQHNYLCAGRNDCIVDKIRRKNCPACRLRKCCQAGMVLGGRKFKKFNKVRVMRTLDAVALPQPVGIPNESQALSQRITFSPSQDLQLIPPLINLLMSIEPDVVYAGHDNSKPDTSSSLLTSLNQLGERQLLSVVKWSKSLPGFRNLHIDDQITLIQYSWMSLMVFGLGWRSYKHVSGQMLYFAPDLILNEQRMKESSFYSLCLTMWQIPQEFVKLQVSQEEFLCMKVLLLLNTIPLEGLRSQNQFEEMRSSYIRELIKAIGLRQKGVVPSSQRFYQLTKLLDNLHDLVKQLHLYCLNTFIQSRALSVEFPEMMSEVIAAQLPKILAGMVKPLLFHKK
- test: DRUGMATRIX: Progesterone radioligand binding (ligand: [3H] R-5020)
- Type: tissue-based, Uterus
- condition details: Not Active = under 50% inhibition at 10 µM
property name: IC50

Example results:
compound: CCOC(=O)c1ccc(N)cc1
IC50: Not Active
--
compound: COC(=O)[C@@H]1[C@H]2C[C@H]3c4[nH]c5ccccc5c4CCN3C[C@@H]2CC[C@@H]1O
IC50: Not Active
--
compound: COC(=O)C1=C(C)NC(C)=C(C(=O)OC)C1c1ccccc1[N+](=O)[O-]
IC50: Not Active
--
compound: COc1c(C)c2c(c(O)c1C/C=C(\C)CCC(=O)OCCN1CCOCC1)C(=O)OC2 [MYCOPHENOLATE MOFETIL]
IC50: Not Active

Q: Recorded IC50 of `Cc1cc(NS(=O)(=O)c2ccc(N)cc2)no1` , please.
Result: Not Active

Q: Recorded IC50 of `CCCCOC(=O)c1ccc(N)cc1` , please.
Result: Not Active

###

- test: DRUGMATRIX: ATPase, Na+/K+ enzyme inhibition (substrate: ATP)
- Type: tissue-based, Sus scrofa, Heart
- condition details: Not Active = under 50% inhibition at 10 µM; read-out: IC50
property name: IC50 (µM)
Reply with just the number (in µM).

Q: Tell me the measured IC50 of `CISPLATIN` , please.
Result: 9.43

###

- test: DRUGMATRIX: Sigma2 radioligand binding (ligand: [3H] Ifenprodil)
- Type: cell membranes, Rattus norvegicus, Wistar, Brain, Membrane
- condition details: Not Active = under 50% inhibition at 10 µM
Where a SMILES comes first, the peptide text is derived from it. Bridges are numbered along the chain shown (N, C = ends). [ ]: non-standard residue; d: D form. The star is where a group is joined. Ileψ(thiazoline)Cys = CC[C@H](C)[C@H](N)C1=N[C@H](C(=O)*)CS1; dOrn = NCCC[C@@H](N)C(=O)O
property name: Ki

Record excerpt, results attached:
compound: NNC(=O)c1ccncc1
Ki: Not Active

compound: COC(=O)C1=C(C)NC(C)=C(C(=O)OC)C1c1ccccc1[N+](=O)[O-]
Ki: Not Active

compound: O=C(O)c1cn(C2CC2)c2cc(N3CCNCC3)c(F)cc2c1=O
Ki: Not Active

compound: CCC[C@@H]1C[C@@H](C(=O)N[C@@H]([C@H]2O[C@H](SC)[C@H](O)[C@@H](O)[C@H]2O)[C@@H](C)O)N(C)C1
Ki: Not Active

compound: CN1CCC[C@H]1c1cccnc1
Ki: Not Active

compound: CC1CN(c2cc3c(cc2F)c(=O)c(C(=O)O)cn3-c2ccc(F)cc2F)CCN1 (stereo unspecified)
Ki: Not Active

Q: Please report the recorded Ki for CC[C@H](C)[C@H](N)C1=N[C@H](C(=O)N[C@@H](CC(C)C)C(=O)N[C@H](CCC(=O)O)C(=O)N[C@H](C(=O)N[C@H]2CCCCNC(=O)[C@H](CC(N)=O)NC(=O)[C@@H](CC(=O)O)NC(=O)[C@H](Cc3cnc[nH]3)NC(=O)[C@@H](Cc3ccccc3)NC(=O)[C@H]([C@@H](C)CC)NC(=O)[C@@H](CCCN)NC2=O)[C@@H](C)CC)CS1 [BACITRACIN] ({Ileψ(thiazoline)Cys}-L[dE]IK[dOrn]I[dF]H[dD]N; lactam 4-C) .
Result: Not Active

Q: Query: Ki; subject: CC1(C)[C@H]2CC[C@]1(C)C(=O)C2 [(-)-CAMPHOR]
Result: Not Active

Just for reference, ChEMBL document CHEMBL1909046 is where these values come from.
